Catalogue of log10 of IC50 readings, one per entry.
- testedOn: Histone deacetylase 1 (Homo sapiens)
- Sequence (Q13547 whole entry): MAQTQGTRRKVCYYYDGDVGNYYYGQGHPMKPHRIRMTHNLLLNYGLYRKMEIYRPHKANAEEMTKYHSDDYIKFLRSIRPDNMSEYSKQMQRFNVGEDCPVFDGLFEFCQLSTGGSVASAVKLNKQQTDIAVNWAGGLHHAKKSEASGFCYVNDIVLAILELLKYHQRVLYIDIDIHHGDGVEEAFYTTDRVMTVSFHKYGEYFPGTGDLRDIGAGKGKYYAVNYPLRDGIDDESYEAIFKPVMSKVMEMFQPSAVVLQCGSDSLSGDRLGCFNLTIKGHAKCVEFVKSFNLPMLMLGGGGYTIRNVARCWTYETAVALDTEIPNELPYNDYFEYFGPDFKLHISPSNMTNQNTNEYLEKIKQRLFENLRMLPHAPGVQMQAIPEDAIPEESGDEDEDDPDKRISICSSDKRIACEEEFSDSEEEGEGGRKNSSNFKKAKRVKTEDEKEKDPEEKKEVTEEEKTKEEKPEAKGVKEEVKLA
- assayInfo: Inhibition of HDAC1 (unknown origin) using compound purified by microgram-scale HPLC work-flow
Kindly note that the scale is log10 and the underlying IC50 is in nM.

INSERT INTO assay_data (molecule, measuredresult) VALUES
  ('CCC(=O)CCCCC[C@H](NC(=O)[C@H]1CC12CCN(C)CC2)c1ncc(-c2ccc(C(=O)NC3CCOC3)cc2)[nH]1 (stereo not given in full)', 1.04),
  ('CCOC(=O)C1CC1c1ccc(OC)c(-c2cnc([C@H](CCCCCC(=O)CC)NC(=O)[C@H]3CC34CCN(CC)CC4)[nH]2)c1 (stereo not given in full)', 0.84),
  ('CCC(=O)CCCCC[C@H](NC(=O)[C@H]1CC12CCN(C)CC2)c1ncc(-c2cnc3cccnc3c2)[nH]1', 1.15),
  ('CCC(=O)CCCCC[C@H](NC(=O)[C@H]1CC12CCN(CC)CC2)c1ncc(-c2cc([N+](=O)[O-])ccc2OC)[nH]1', 0.89),
  ('CCC(=O)CCCCC[C@H](NC(=O)[C@H]1CC12CCN(CC)CC2)c1ncc(-c2cc(C#N)ccc2OC)[nH]1', 1.08);

Form: item `CCC(=O)CCCCC[C@H](NC(=O)[C@H]1CC12CCN(C)CC2)c1ncc(C2=CC(=O)N(C)CC2)[nH]1` ; test system Histone deacetylase 1 (Homo sapiens); log10 of IC50: 2.48

Form: item `CCC(=O)CCCCC[C@H](NC(=O)[C@H]1CC12CCN(CC)CC2)c1ncc(-c2c(OC)ccc(F)c2F)[nH]1` ; test system Histone deacetylase 1 (Homo sapiens); log10 of IC50: 2.78

Form: item `CCC(=O)CCCCC[C@H](NC(=O)[C@H]1CC12CCN(CC)CC2)c1ncc(-c2ccc(C(=O)Nc3cc(C(F)(F)F)ccn3)cc2OC)[nH]1` ; test system Histone deacetylase 1 (Homo sapiens); log10 of IC50: 2.08

Form: item `CCC(=O)CCCCC[C@H](NC(=O)[C@H]1CC12CCN(CC)CC2)c1ncc(-c2cc(C(F)(F)F)ccc2OC)[nH]1` ; test system Histone deacetylase 1 (Homo sapiens); log10 of IC50: 0.26

Form: item `CCC(=O)CCCCC[C@H](NC(=O)[C@H]1CC12CCN(C)CC2)c1ncc(-c2ccnc(N3CCOCC3)c2F)[nH]1` ; test system Histone deacetylase 1 (Homo sapiens); log10 of IC50: 1.34

Form: item `CCOC(=O)c1cc2cc(OC)c(-c3cnc([C@H](CCCCCC(=O)CC)NC(=O)[C@H]4CC45CCN(CC)CC5)[nH]3)cc2o1` ; test system Histone deacetylase 1 (Homo sapiens); log10 of IC50: 0.04

Form: item `CCC(=O)CCCCC[C@H](NC(=O)[C@H]1CC12CCN(CC)CC2)c1ncc(-c2cc(C(C)C)c(F)cc2OC)[nH]1` ; test system Histone deacetylase 1 (Homo sapiens); log10 of IC50: 1.80
